# Test system: A549 cells
# METHOD_SUMMARY: Annexin V-FITC/propidium iodide apoptosis detection by flow cytometry
# Format: cell-based, human
# CONDITION_NOTES: IC50 dose, 24 h
Threshold check on Q1-LR early apoptotic cells: at or above 4% gives True, strictly below gives False.

Some solved entries appear below for comparison.
CS(=O)(=O)c1ccc(-c2csc(NN=Cc3cccnc3)n2)cc1 :: True
CS(=O)(=O)c1ccc(-c2csc(NN=Cc3ccccn3)n2)cc1 :: True
C(=NNc1nc(-c2ccc(-c3ccccc3)cc2)cs1)c1ccccn1 :: True

hey, is Q1-LR early apoptotic cells for this one >= 4%? C(=NNc1nc(-c2ccc(-c3ccccc3)cc2)cs1)c1ccncc1
True

hey, is Q1-LR early apoptotic cells for this one >= 4%? Clc1ccc(-c2csc(NN=Cc3ccncc3)n2)cc1Cl
False
